Tested on: NCI-H322M lung
method: NCI-60 one-dose screen, 48 h
run-conditions: 10 µM unless noted
About 83,000 compounds went through this panel and 20% of them were active in at least one assay; those are over-represented in the sample as a whole. The source made the active and inactive calls. Rule for the calls: active = growth percent below 10; inactive = the rest.
Answer with one of the outcomes given here: active, inactive

molecule: COc1cc(C=C2C(=O)N(C)C(=O)N(C)C2=O)cc(CN2CCCCC2)c1O
label: inactive
//
molecule: Cc1[nH]c2ccccc2c(=O)c1CC=C(Cl)Cl
label: active
//
molecule: CN=c1ccc2nc3ccc(N)cc3sc-2c1
label: inactive

Query: Dear all, I need the recorded test outcome for COC(=O)c1c2c(c(C)[n+]([O-])c1C)C(=O)C(NCc1ccc(F)c(F)c1)=CC2=O , thank you.
Result: inactive

Query: Dear all, I need the recorded test outcome for c1ccc2cc3c(Nc4ccc(N5CCOCC5)cc4)ccnc3cc2c1 , thank you.
Result: inactive

Query: Dear all, I need the recorded test outcome for Cc1ccc(NC2=CC(=O)C(=O)c3ccccc32)c(C)c1 , thank you.
Result: inactive

Query: Dear all, I need the recorded test outcome for Cn1c(=O)n(C)c2cc(CNCCNc3ccnc4cc(Cl)ccc34)ccc21 , thank you.
Result: inactive

Query: Dear all, I need the recorded test outcome for CN1C(=O)N(C)C2Nn3c(s/c(=C\c4ccc(Cl)cc4Cl)c3=O)=NC21 (configuration not stated) , thank you.
Result: inactive

Query: Dear all, I need the recorded test outcome for COc1cc(/C=C2\CCC/C(=C\c3cc(CN4CCOCC4)c(O)c(OC)c3)C2=O)cc(CN2CCOCC2)c1O , thank you.
Result: inactive

Query: Dear all, I need the recorded test outcome for CCOC(=O)c1sc(-c2ccc(OS(=O)(=O)c3ccccc3[N+](=O)[O-])c(C=O)c2)nc1C , thank you.
Result: inactive

Query: Dear all, I need the recorded test outcome for COc1cc([C@@H]2NC(=O)NC(C)=C2C(=O)Nc2nc(-c3ccc(Cl)cc3)cs2)ccc1O , thank you.
Result: inactive

Query: Dear all, I need the recorded test outcome for CN1C(=O)N(C)C2C1NN=c1s/c(=C\c3c[nH]c4ccccc34)c(=O)n12 (configuration not stated) , thank you.
Result: inactive

Query: Dear all, I need the recorded test outcome for Cn1c(C(=O)c2cccc3ccccc23)nc2ccccc21 , thank you.
Result: active

Query: Dear all, I need the recorded test outcome for COc1ccc(C2=C(c3cccc(OC)c3)C(=O)c3ccc(C)nc3C2=O)cc1 , thank you.
Result: inactive
